Molecular target: T1, RBFOX1 RRM (Homo sapiens, UniProt Q9NWB1 109-208)
T1 sequence: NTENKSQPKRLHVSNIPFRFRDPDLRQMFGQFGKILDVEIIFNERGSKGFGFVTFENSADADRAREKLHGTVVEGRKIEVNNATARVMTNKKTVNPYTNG
Assay: EMSA; HiTS-Eq, 1 nM pool, 10 min; buffer printed only for the single-RNA assays: 10 mM Tris pH 7.5, 150 mM NaCl, 3.4 mM EDTA, 0.001% NP-40, 30 C
Settings: tags: His6 N-terminal (pET28a); label: 5' 32P
The full ranking holds about 16,000 sequences; the median of “ka relative to ugcaugu” is about 0.0091, and the highest 2% start at about 0.032. Many of the other results were omitted from the sample, so the highest values are more common in it than they were.
binding signal: recorded values

Example results:
Binder	Reported Measurement
GGGGCAC (DNA:RNA) RNA: GGGAGACCGGAAUUCAGAUUGUCCGGGGCACUUAAAUCCCGUCGUAGCCACCA DNA 1: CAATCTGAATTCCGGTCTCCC DNA 2: TGGTGGCTACGACGGGATT	0.0252 KA relative to UGCAUGU
AGGCACC (DNA:RNA) RNA: GGGAGACCGGAAUUCAGAUUGUCCAGGCACCUUAAAUCCCGUCGUAGCCACCA DNA 1: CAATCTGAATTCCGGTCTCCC DNA 2: TGGTGGCTACGACGGGATT	0.00933 KA relative to UGCAUGU

// binding signal lookup, binder = CGGGAUU (DNA:RNA) RNA: GGGAGACCGGAAUUCAGAUUGUCCCGGGAUUUUAAAUCCCGUCGUAGCCACCA DNA 1: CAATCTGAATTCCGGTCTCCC DNA 2: TGGTGGCTACGACGGGATT , result: 0.03 KA relative to UGCAUGU

The recorded binding signal for UGGCACC (DNA:RNA) RNA: GGGAGACCGGAAUUCAGAUUGUCCUGGCACCUUAAAUCCCGUCGUAGCCACCA DNA 1: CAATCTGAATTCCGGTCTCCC DNA 2: TGGTGGCTACGACGGGATT is 0.0134 KA relative to UGCAUGU

binder GGGAUUU (DNA:RNA) RNA: GGGAGACCGGAAUUCAGAUUGUCCGGGAUUUUUAAAUCCCGUCGUAGCCACCA DNA 1: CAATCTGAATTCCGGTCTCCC DNA 2: TGGTGGCTACGACGGGATT , binding signal observed: 0.0372 KA relative to UGCAUGU
